# measurementTarget: protein kinase C
# experimentSummary: in vitro protein kinase C inhibition (32P incorporation from [γ-32P]ATP into histone)
# statedConditions: protein kinase C isolated from rat brains; 10 µM [γ-32P]ATP, lysine-rich histone, 30°C, 10 minutes
Structures can show the parent of a compound that is named as a salt.
Answer each item with its documented pIC50.
Give bare numbers, as −log10 of the molar value.

{"molecule": "CC(C)[C@H](N)[C@H]1CCn2c(c(C3=C(c4cn(C)c5ccccc45)C(=O)NC3=O)c3ccccc32)C1 [Example 11, hydrochloride]", "pIC50": 8.26}

--- query ---
Task: Quick check: pIC50 of CCC(N)[C@H]1CCn2c(c(C3=C(c4cn(C)c5ccccc45)C(=O)NC3=O)c3ccccc32)C1 (single isomer, unassigned) [Example 10, hydrochloride] ?
Output: 8.48
